# ASSAY_TARGET: A117S/D121G/P323V dDAT (triple dDAT mutant) (Drosophila melanogaster, UniProt Q7K4Y6, A117S/D121G/P323V)
# ASSAY_INFO: MAT-Ca2+ assay: inhibition of DA-induced Ca2+ signals
# Type: cell-based
# STATED_CONDITIONS: Table 2 dataset, with DA pre-pulse
RECORDED_METRIC: IC50 (nM)
# value in nM; strip the unit string

Example cases with answers are listed next.
{"COMPOUND": "CC(C(=O)c1ccc2c(c1)OCO2)N1CCCC1 (stereo not drawn)", "READING": 16000}
{"COMPOUND": "CCCC(C(=O)c1ccc2c(c1)OCO2)N1CCCC1 (stereo not drawn)", "READING": 1210}

Lookup: Give the measured IC50 of CCCC(C(=O)c1ccccc1)N1CCCC1 (stereo not drawn) .
Found: 1530

----------
# ASSAY_TARGET: A117S/D121G/P323V dDAT (triple dDAT mutant) (Drosophila melanogaster, UniProt Q7K4Y6, A117S/D121G/P323V)
# ASSAY_INFO: MAT-Ca2+ assay: inhibition of DA-induced Ca2+ signals
# Format: cell-based
# STATED_CONDITIONS: Table 1 dataset, without DA pre-pulse
RECORDED_METRIC: pIC50
Scale for pIC50: -log10 of concentration given in mol/L; no unit attached.

Lookup: Any idea what pIC50 was measured for CCCC(C(=O)c1ccc2c(c1)OCO2)N1CCCC1 (stereo not shown) ?
Found: 5.93

----------
# ASSAY_TARGET: F318C dDAT mutant (Drosophila melanogaster, UniProt Q7K4Y6, F318C)
# ASSAY_INFO: MAT-Ca2+ assay: inhibition of DA-induced Ca2+ signals
# STATED_CONDITIONS: F318C dDAT
RECORDED_METRIC: IC50

Lookup: What measured IC50 goes with CCCC(C(=O)c1ccc2c(c1)OCO2)N1CCCC1 (stereo not shown) [MDPV, 3,4-Methylenedioxypyrovalerone] ?
Found: 8.24 µM

----------
# ASSAY_TARGET: A117S/D121G/P323V dDAT (triple dDAT mutant) (Drosophila melanogaster, UniProt Q7K4Y6, A117S/D121G/P323V)
# ASSAY_INFO: MAT-Ca2+ assay: inhibition of DA-induced Ca2+ signals
# Format: cell-based
# STATED_CONDITIONS: Table 1 dataset
RECORDED_METRIC: IC50
Mention the unit after the number when you answer.

Lookup: Value lookup for IC50; key = CCCC(C(=O)c1ccc2c(c1)OCO2)N1CCCC1 (stereo not shown) [MDPV, 3,4-Methylenedioxypyrovalerone]
Found: 1180 nM

----------
# ASSAY_TARGET: A117S/D121G dDAT mutant (Drosophila melanogaster, UniProt Q7K4Y6, A117S/D121G)
# ASSAY_INFO: MAT-Ca2+ assay: inhibition of DA-induced Ca2+ signals
RECORDED_METRIC: pIC50
Quick note: pIC50 means taking -log10 of the concentration in moles per liter.

Lookup: For the compound shown here, CCCC(C(=O)c1ccc2c(c1)OCO2)N1CCCC1 (stereo not shown) [MDPV, 3,4-Methylenedioxypyrovalerone] , give the reported pIC50.
Found: 5.66

----------
# ASSAY_TARGET: A117S/D121G/P323V/F318C dDAT (quadruple dDAT mutant) (Drosophila melanogaster, UniProt Q7K4Y6, A117S/D121G/F318C/P323V)
# ASSAY_INFO: MAT-Ca2+ assay: inhibition of DA-induced Ca2+ signals
# Format: cell-based
# STATED_CONDITIONS: Table 2 dataset
RECORDED_METRIC: IC50

Lookup: Looking for the measured IC50 of CCCC(C(=O)c1ccccc1)N1CCCC1 (stereo not shown) , can you help?
Found: 1.09 µM
